Field: pIC50. Provide a value for each of the molecules that follow.
Formally, pIC50 is defined as -log10 of the concentration c, with c in mol/L.

Log: Complement C1r subcomponent (Homo sapiens, UniProt P00736), molecule "O=c1oc(Nc2c(Cl)cccc2Cl)nc2ccccc12" , pIC50 = 6.05

Value sought: pIC50, system Complement C1r subcomponent (Homo sapiens, UniProt P00736), item "O=c1oc(Nc2cc(Cl)ccc2Cl)nc2ccccc12" . Result: 5.70

Lab note: molecule "COc1cc2nc(Nc3ccccc3I)oc(=O)c2cc1OC" tested on Complement C1r subcomponent (Homo sapiens, UniProt P00736); recorded pIC50 was 4.33

Response field pIC50 (Complement C1r subcomponent (Homo sapiens, UniProt P00736)) for item "O=c1oc(Nc2ccccc2I)nc2cc3ccccc3cc12" : 6.70

Source listed as ChEMBL document CHEMBL1131375.
